# Ki per record follows
- measuredOn: Acetylcholine receptor subunit alpha (Torpedo californica, UniProt P02710)
- Sequence (P02710 whole entry): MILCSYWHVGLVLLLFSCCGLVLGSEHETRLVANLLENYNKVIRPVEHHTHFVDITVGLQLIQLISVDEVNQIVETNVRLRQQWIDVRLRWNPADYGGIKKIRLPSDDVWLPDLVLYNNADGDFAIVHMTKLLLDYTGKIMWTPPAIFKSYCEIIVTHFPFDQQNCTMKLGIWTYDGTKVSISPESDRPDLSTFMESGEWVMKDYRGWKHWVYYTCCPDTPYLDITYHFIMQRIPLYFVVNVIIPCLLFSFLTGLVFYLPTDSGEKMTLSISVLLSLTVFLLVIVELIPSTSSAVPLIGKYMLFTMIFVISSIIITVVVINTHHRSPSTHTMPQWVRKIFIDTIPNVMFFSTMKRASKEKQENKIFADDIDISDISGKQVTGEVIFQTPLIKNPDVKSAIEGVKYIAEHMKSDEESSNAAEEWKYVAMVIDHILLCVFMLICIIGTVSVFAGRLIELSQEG
- experimentDescription: Compound was evaluated for its ability to displace [125 I]alpha-bungarotoxin (alpha-BgT) from torpedo alpha1-beta1-[…] electroplax
measurementLabel: Ki

INSERT INTO results (compound, measurementlabel, endpointvalue) VALUES
  ('c1cncc(OC[C@H]2CCN2)c1', 'Ki', '384 nM'),
  ('c1cncc(OC[C@@H]2CCN2)c1', 'Ki', '314 nM'),
  ('Clc1ccc(OCC2CCN2)cn1 (single isomer, unassigned) [TEBANICLINE]', 'Ki', '10000 nM');

---

- measuredOn: Neuronal acetylcholine receptor subunit alpha-7 (Homo sapiens)
- Sequence (P36544 whole entry): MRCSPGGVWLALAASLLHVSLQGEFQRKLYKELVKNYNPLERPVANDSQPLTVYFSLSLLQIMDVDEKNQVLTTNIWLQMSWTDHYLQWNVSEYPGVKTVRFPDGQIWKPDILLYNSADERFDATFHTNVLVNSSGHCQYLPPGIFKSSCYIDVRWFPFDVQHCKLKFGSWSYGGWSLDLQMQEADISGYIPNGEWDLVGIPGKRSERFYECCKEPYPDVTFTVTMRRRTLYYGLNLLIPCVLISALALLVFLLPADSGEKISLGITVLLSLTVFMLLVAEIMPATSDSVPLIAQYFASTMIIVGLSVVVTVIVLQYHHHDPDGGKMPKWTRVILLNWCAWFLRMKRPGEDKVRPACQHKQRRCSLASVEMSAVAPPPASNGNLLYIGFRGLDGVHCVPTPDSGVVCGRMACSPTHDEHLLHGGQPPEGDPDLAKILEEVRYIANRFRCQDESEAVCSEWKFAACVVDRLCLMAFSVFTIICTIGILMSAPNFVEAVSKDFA
- experimentDescription: Compound was evaluated for its ability to displace [125I]alpha-bungarotoxin (alpha-BgT) from K28 cells expressing human Nicotinic acetylcholine receptor alpha7
pKi: −log10 of the molar value.
measurementLabel: pKi

INSERT INTO measurements (compound, endpointvalue) VALUES
  ('c1cncc(OC[C@H]2CCN2)c1', 5.89),
  ('Clc1ccc(OCC2CCN2)cn1 (single isomer, unassigned) [TEBANICLINE]', 5.69);

---

- measuredOn: Neuronal acetylcholine receptor subunit alpha-3 (Homo sapiens)
- experimentDescription: Functional activation of human sympathetic ganglionic type nAChRs in IMR-32 cells containing alpha-3 subtype
pEC50: −log10 of the molar value.
We use 6 as the dividing line for pEC50: on or above the line is Yes, below is No.

INSERT INTO assay_data (compound, assignedlabel) VALUES
  ('Clc1ccc(OCC2CCN2)cn1 (single isomer, unassigned)', 'Yes'),
  ('Clc1ccc(OC[C@H]2CCCN2)cn1', 'Yes'),
  ('CN1CC[C@H]1COc1ccc(Cl)nc1', 'No');

---

- measuredOn: Neuronal acetylcholine receptor subunit alpha-3 (Homo sapiens, UniProt P32297)
- Sequence (P32297 whole entry): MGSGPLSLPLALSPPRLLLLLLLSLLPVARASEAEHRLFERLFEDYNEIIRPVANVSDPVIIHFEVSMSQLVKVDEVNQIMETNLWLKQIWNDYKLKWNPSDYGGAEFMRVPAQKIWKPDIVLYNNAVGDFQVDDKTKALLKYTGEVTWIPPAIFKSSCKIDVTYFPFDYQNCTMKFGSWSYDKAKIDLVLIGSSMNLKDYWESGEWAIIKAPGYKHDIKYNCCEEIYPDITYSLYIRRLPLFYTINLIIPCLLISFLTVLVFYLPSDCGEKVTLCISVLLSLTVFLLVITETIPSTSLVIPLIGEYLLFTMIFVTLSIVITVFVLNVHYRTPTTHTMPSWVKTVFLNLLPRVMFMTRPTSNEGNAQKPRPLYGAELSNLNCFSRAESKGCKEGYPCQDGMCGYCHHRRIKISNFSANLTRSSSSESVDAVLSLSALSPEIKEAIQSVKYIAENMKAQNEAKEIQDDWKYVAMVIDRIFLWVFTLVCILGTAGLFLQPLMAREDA
- experimentDescription: Intrinsic activity against human sympathetic ganglionic type nAChRs in IMR-32 cells containing alpha-3 subtype
- Format: functional, cell-based
# IA per record follows
measurementLabel: IA (%)

INSERT INTO assay_data (molecule, measurementlabel, endpointvalue) VALUES
  ('Clc1ccc(OC[C@H]2CCCN2)cn1', 'IA', 110),
  ('Clc1ccc(OCC2CCN2)cn1 (single isomer, unassigned) [TEBANICLINE]', 'IA', 116),
  ('c1cncc(OC[C@@H]2CCN2)c1', 'IA', 113),
  ('CN1CC[C@H]1COc1ccc(Cl)nc1', 'IA', 43),
  ('Clc1ccc(OC[C@@H]2CCCN2)cn1', 'IA', 104),
  ('Clc1ccc(C2CC3CCC2N3)cn1 (racemic)', 'IA', 156),
  ('c1cncc(OC[C@H]2CCN2)c1', 'IA', 116);

---

- measuredOn: Neuronal acetylcholine receptor
- experimentDescription: Compound was evaluated for its ability to displace [3H]-cytisine binding from high-affinity Nicotinic acetylcholine receptor in rat brain (principally the alpha4-beta2 nAChR subtype)
pKi: −log10 of the molar value.
# pKi per record follows
measurementLabel: pKi

INSERT INTO results (compound, measurementlabel, endpointvalue) VALUES
  ('Clc1ccc(OC[C@H]2CCCN2)cn1', 'pKi', 10.05),
  ('CN1CC[C@H]1COc1ccc(Cl)nc1', 'pKi', 8.80),
  ('Clc1ccc(OC[C@@H]2CCCN2)cn1', 'pKi', 9.35),
  ('Clc1ccc(OCC2CCN2)cn1 (single isomer, unassigned)', 'pKi', 10.40);
